TEST_SYSTEM: human recombinant adrenergic α2B receptor (Homo sapiens)
Construct: expressed in transfected cells; host or cells: CHO-K1
Sequence (P18089 whole entry): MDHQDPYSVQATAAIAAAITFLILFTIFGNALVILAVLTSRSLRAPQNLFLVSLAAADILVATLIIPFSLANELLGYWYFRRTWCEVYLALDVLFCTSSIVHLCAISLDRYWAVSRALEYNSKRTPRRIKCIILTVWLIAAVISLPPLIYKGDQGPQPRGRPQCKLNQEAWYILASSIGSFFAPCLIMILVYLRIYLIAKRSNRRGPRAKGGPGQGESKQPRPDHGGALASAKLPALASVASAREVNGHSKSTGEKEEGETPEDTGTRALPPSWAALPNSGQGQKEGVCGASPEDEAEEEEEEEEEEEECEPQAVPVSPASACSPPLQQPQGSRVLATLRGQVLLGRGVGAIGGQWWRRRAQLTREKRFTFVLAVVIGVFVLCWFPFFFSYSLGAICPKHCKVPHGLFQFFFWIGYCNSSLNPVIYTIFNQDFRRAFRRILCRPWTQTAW
PROTOCOL_DESCRIPTION: Radioligand binding, adrenergic α2B ([3H]Rauwolscine)
REPORTED_CONDITIONS: compound at 0.03 μM, repeat datapoints each shown, 0.03 µM
Task for the reader: assign each of the following molecules its reported Percentage inhibition of ligand binding, Adrenergic α2B (0.03 μM).

Example entries and their recorded answers appear below.
# MOLECULE, READING
rows = [
    ("Cc1ccc2c(c1)c1c(n2CC(C)(O)c2cccnc2)CN(C)CC1 (stereo not drawn) [14b]", "14%"),
    ("Cc1ccc2c(c1)c1c(n2CC(O)c2ccncc2)CC2CCCCN2C1 (racemic) [75a]", "77%"),
    ("OC(Cn1c2c(c3cccnc31)CN1CCCC1C2)c1ccncc1 (single isomer, unassigned) [37a]", "2%"),
    ("Cc1ccc2c(c1)c1c(n2CC(O)c2ccncc2)CC2CCCCN2C1 (racemic) [75b]", "43%"),
    ("CN1CCc2c(c3cc(Cl)ccc3n2CC(O)c2ccncc2)C1 (single isomer, unassigned)", "46%"),
    ("Cc1ccc2c(c1)c1c(n2CC(C)(O)c2cccnc2)CCNC1 (single isomer, unassigned) [24a]", "63%"),
]

Hey, quick one: what's Percentage inhibition of ligand binding, Adrenergic α2B (0.03 μM) for each of these?
1. OC(Cn1c2c(c3cccnc31)CN1CCCC1C2)c1ccncc1 (single isomer, unassigned) [37d]
2. Cc1cnc2c(c1)c1c(n2CCc2ccc(C)nc2)CCN2CCCCC12 (single isomer, unassigned)
3. Cc1ccc2c(c1)c1c(n2CC(O)c2ccncc2)CC2CCCN2C1 (single isomer, unassigned) [76d]

["−3%", "4%", "91%"]

###

TEST_SYSTEM: rat adrenergic α1B receptor (Rattus norvegicus, UniProt P15823)
Construct: rat adrenergic α1B receptor obtained from Wistar Rat liver; from tissue; host or cells: Wistar rat liver
Sequence (P15823 whole entry): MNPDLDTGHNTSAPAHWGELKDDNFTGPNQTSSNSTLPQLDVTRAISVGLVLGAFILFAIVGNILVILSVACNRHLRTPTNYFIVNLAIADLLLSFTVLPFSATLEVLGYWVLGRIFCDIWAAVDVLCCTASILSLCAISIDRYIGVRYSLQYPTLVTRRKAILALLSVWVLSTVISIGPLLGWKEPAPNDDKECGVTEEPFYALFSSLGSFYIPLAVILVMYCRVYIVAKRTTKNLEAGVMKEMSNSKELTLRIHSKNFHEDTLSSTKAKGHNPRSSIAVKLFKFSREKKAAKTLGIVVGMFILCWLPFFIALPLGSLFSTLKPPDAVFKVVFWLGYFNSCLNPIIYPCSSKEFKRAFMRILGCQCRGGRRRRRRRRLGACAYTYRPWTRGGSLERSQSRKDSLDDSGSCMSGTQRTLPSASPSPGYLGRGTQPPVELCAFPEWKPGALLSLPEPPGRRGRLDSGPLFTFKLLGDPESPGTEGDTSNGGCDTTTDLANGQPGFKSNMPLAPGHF
PROTOCOL_DESCRIPTION: Radioligand binding, adrenergic α1B ([3H]Prazosin)
Parameters: species or system Wistar Rat
REPORTED_CONDITIONS: compound at 0.1 μM
Task for the reader: assign each of the following molecules its reported Percentage inhibition of ligand binding, Adrenergic α1B.
Give bare numbers, in %.

# MOLECULE, UNIT_NAME, READING
measured = [
    ("Cc1ccc2c(c1)c1c(n2CC(C)c2ccc(F)cc2)CCN(C)C1 (single isomer, unassigned) [288b]", "%", 39),
    ("OCCN1CCc2c(c3cc(Cl)ccc3n2CC(O)c2cccnc2)C1 (single isomer, unassigned) [II-94b]", "%", 7),
    ("OCCN1CCc2c(c3cc(Cl)ccc3n2CC(O)c2ccncc2)C1 (single isomer, unassigned) [II-93a]", "%", 6),
]

rat adrenergic α1B receptor (Rattus norvegicus, UniProt P15823) data for CN1CCc2c(n(CC(O)c3ccc(F)c(F)c3)c3ccc(Cl)cc23)CC1 (single isomer, unassigned) [339a] ; its Percentage inhibition of ligand binding, Adrenergic α1B: 13

###

TEST_SYSTEM: rat adrenergic α1B receptor (Rattus norvegicus, UniProt P15823)
Construct: rat adrenergic α1B receptor obtained from Wistar Rat liver; from tissue; host or cells: Wistar rat liver
PROTOCOL_DESCRIPTION: Radioligand binding, adrenergic α1B ([3H]Prazosin)
Set-up: species or system Wistar Rat
REPORTED_CONDITIONS: compound at 0.1 μM, repeat datapoints each shown, 0.1 µM
Task for the reader: assign each of the following compounds its reported Percentage inhibition of ligand binding, Adrenergic α1B (0.1 μM).
One number for each entry, in %.

Example entries and their recorded answers appear below.
# COMPOUND, UNIT_NAME, READING
data = [
    ("Cc1cnc2c(c1)c1c(n2CC(C)(O)c2cccnc2)CCN2CCCC12 (single isomer, unassigned) [26d]", "%", "−2"),
    ("Cc1ccc2c(c1)c1c(n2CC(O)c2cc[n+]([O-])cc2)CCN(C)C1 (single isomer, unassigned) [69a]", "%", 4),
    ("CN1CCc2c(c3cccc(Br)c3n2CC(O)c2ccncc2)C1 (single isomer, unassigned) [48b]", "%", 14),
    ("Cc1ccc2c(c1)c1c(n2CC(O)c2ccncc2)CCN2CCCCC12 (single isomer, unassigned) [47b]", "%", 70),
]

Hey, quick one: what's Percentage inhibition of ligand binding, Adrenergic α1B (0.1 μM) for each of these?
1. CN1CCc2c(c3cc(Cl)ccc3n2CC(O)c2cccnc2)C1 (single isomer, unassigned) [7a]
2. CCCCC(O)(Cn1c2c(c3cc(Cl)ccc31)CN(C)CC2)c1ccc(F)cc1 (single isomer, unassigned) [33b]

1. 28
2. 0
